Consider the following compounds; for each one, report its MIC.
# Tested on: Staphylococcus epidermidis 831 (MRSE)
# protocol summary: MIC by broth microdilution, SE 831
# Type: cell-based
# condition parameters: Staphylococcus epidermidis, MRSE, read-out: MIC SE 831

Write down the reported MIC of CCNCCOc1ccc(CCNC(=O)Oc2cc(O)c3c(c2)[C@@H](C(=O)NC2C4CC5CC(C4)CC2C5)NC(=O)[C@H]2NC(=O)[C@H](NC(=O)[C@@H]4NC(=O)[C@H](CC(N)=O)NC(=O)[C@H](NC(=O)[C@@H](CC(C)C)NC)[C@H](O)c5ccc(c(Cl)c5)Oc5cc4cc(c5O[C@@H]4O[C@H](CO)[C@@H](O)[C@H](O)[C@H]4O[C@H]4C[C@](C)(N)[C@H](O)[C@H](C)O4)Oc4ccc(cc4Cl)[C@H]2O)c2ccc(O)c-3c2)cc1 (some centres unmarked) , test system: Staphylococcus epidermidis 831 (MRSE). 0.01 to 0.5 mg/L

Any idea what MIC came out for CNCCCOc1ccc(NC(=O)Oc2cc(O)c3c(c2)[C@@H](C(=O)NC2C4CC5CC(C4)CC2C5)NC(=O)[C@H]2NC(=O)[C@H](NC(=O)[C@@H]4NC(=O)[C@H](CC(N)=O)NC(=O)[C@H](NC(=O)[C@@H](CC(C)C)NC)[C@H](O)c5ccc(c(Cl)c5)Oc5cc4cc(c5O[C@@H]4O[C@H](CO)[C@@H](O)[C@H](O)[C@H]4O[C@H]4C[C@](C)(N)[C@H](O)[C@H](C)O4)Oc4ccc(cc4Cl)[C@H]2O)c2ccc(O)c-3c2)cc1 (some centres unmarked) on Staphylococcus epidermidis 831 (MRSE)? 8 to 16 mg/L

Query for Staphylococcus epidermidis 831 (MRSE): what MIC does the record show for CCCCCCCC(C)NC(=O)Oc1cc(O)c2c(c1)[C@@H](C(=O)NC1C3CC4CC(C3)CC1C4)NC(=O)[C@H]1NC(=O)[C@H](NC(=O)[C@@H]3NC(=O)[C@H](CC(N)=O)NC(=O)[C@H](NC(=O)[C@@H](CC(C)C)NC)[C@H](O)c4ccc(c(Cl)c4)Oc4cc3cc(c4O[C@@H]3O[C@H](CO)[C@@H](O)[C@H](O)[C@H]3O[C@H]3C[C@](C)(N)[C@H](O)[C@H](C)O3)Oc3ccc(cc3Cl)[C@H]1O)c1ccc(O)c-2c1 (some centres unmarked) ? 0.01 to 0.5 mg/L

Notebook entry, Staphylococcus epidermidis 831 (MRSE) assay: MIC of CCCCc1ccc(NC(=O)Oc2cc(O)c3c(c2)[C@@H](C(=O)NC2C4CC5CC(C4)CC2C5)NC(=O)[C@H]2NC(=O)[C@H](NC(=O)[C@@H]4NC(=O)[C@H](CC(N)=O)NC(=O)[C@H](NC(=O)[C@@H](CC(C)C)NC)[C@H](O)c5ccc(c(Cl)c5)Oc5cc4cc(c5O[C@@H]4O[C@H](CO)[C@@H](O)[C@H](O)[C@H]4O[C@H]4C[C@](C)(N)[C@H](O)[C@H](C)O4)Oc4ccc(cc4Cl)[C@H]2O)c2ccc(O)c-3c2)cc1 (some centres unmarked) = ? 0.01 to 0.5 mg/L

Item: CCCCOc1ccc(CCNC(=O)Oc2cc(O)c3c(c2)[C@@H](C(=O)NC2C4CC5CC(C4)CC2C5)NC(=O)[C@H]2NC(=O)[C@H](NC(=O)[C@@H]4NC(=O)[C@H](CC(N)=O)NC(=O)[C@H](NC(=O)[C@@H](CC(C)C)NC)[C@H](O)c5ccc(c(Cl)c5)Oc5cc4cc(c5O[C@@H]4O[C@H](CO)[C@@H](O)[C@H](O)[C@H]4O[C@H]4C[C@](C)(N)[C@H](O)[C@H](C)O4)Oc4ccc(cc4Cl)[C@H]2O)c2ccc(O)c-3c2)cc1 (some centres unmarked) Test system: Staphylococcus epidermidis 831 (MRSE) Read-out: MIC Value: ? 0.01 to 0.5 mg/L

Numbers sourced from patent US20110015119A1.
